- systemTested: GMIIb (Golgi α-mannosidase) (Drosophila melanogaster, UniProt Q9VF33)
- Sequence (Q9VF33 31-1249): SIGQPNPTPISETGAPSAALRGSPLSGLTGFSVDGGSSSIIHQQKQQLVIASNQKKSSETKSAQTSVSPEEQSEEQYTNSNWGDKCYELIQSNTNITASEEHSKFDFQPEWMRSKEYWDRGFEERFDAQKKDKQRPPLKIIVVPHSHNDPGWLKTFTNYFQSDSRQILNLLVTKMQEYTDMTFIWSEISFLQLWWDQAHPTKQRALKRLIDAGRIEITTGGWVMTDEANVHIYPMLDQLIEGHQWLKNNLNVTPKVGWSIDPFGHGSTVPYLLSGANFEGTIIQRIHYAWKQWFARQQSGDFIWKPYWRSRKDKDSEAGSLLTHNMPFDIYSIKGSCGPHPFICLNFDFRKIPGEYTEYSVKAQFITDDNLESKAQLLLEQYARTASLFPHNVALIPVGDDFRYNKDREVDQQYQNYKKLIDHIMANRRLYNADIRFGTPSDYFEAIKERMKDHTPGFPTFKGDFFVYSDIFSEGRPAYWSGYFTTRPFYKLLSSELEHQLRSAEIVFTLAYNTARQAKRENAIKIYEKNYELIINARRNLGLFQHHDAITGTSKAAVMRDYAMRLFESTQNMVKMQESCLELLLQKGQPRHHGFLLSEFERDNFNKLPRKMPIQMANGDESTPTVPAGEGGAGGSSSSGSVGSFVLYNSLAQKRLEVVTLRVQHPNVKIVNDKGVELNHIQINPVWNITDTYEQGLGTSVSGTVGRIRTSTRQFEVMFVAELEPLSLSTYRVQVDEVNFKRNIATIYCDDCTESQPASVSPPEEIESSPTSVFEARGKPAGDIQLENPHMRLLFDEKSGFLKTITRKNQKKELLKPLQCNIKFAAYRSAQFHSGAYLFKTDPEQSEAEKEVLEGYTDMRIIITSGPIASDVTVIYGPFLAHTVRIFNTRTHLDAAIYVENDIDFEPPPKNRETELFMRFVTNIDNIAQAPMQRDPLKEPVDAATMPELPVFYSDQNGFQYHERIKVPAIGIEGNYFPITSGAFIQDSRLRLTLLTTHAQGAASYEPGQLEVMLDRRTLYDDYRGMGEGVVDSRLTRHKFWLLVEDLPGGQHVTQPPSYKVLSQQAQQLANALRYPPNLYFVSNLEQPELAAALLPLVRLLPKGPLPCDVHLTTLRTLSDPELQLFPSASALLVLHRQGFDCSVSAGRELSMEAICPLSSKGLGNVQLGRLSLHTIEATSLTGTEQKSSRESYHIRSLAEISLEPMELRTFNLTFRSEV
- assayProcedure: α-mannosidase inhibition assay with pNP-Man, GMIIb
- Type: biochemical
- testContext: read-out: Ki(GMIIb)
property: pKi
Answers are plain numbers, as −log10 of the molar value.

Value of measured pKi for the entry OCC1C(O)C(O)CN1CCc1cccc2ccccc12 (stereo not shown) : 6.82

====

Give pKi for every item shown.
- systemTested: LManII (lysosomal α-mannosidase) (Drosophila melanogaster, UniProt Q9VKV1)
- Sequence (Q9VKV1 25-1080): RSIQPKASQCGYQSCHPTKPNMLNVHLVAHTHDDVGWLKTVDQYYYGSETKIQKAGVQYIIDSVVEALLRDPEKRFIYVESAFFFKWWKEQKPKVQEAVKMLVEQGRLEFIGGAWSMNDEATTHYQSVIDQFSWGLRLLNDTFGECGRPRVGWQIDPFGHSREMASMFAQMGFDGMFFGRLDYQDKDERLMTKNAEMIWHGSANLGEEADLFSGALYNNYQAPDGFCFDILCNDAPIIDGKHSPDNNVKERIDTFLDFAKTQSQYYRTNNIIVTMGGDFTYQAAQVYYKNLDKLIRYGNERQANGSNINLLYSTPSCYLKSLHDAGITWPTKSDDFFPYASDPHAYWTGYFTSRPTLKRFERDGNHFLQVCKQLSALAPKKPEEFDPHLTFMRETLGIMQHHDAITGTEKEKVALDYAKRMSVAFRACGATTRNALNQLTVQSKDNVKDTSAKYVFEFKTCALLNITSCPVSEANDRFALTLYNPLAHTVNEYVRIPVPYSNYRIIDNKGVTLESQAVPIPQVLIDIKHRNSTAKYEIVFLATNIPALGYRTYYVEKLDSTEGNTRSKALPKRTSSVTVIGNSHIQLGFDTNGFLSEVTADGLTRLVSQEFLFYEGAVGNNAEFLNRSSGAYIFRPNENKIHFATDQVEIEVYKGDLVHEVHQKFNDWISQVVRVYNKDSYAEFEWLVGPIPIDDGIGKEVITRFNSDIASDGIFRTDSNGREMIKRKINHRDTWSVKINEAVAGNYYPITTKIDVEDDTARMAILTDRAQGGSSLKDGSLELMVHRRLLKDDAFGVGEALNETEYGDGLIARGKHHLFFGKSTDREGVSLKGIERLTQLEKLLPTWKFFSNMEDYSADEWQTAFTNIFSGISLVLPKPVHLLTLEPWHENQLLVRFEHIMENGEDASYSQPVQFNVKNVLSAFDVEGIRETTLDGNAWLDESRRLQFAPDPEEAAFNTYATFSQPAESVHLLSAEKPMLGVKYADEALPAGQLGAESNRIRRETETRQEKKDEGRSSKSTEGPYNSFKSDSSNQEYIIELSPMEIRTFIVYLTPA
- assayProcedure: α-mannosidase inhibition assay with pNP-Man, LManII
- Assay type: biochemical
- testContext: read-out: Ki LManII; Dixon plots, pNP-Man 0.5-4 mM, pH 5.2
Give bare numbers, as −log10 of the molar value.

compound: OCC1C(O)C(O)CN1CCc1cccc2ccccc12 (centres unmarked) [Compound 18]
recordedResult: 5.41

Value of measured pKi for the entry Cl.N=C(N)NCc1ccc(CN2C[C@@H](O)[C@@H](O)[C@H]2CO)cc1 [Compound 9] : 3.78

====

Give IC50 for every item shown.
- systemTested: JBMan (Jack bean α-mannosidase) (Canavalia ensiformis)
- Sequence (C0HJB3 1-981): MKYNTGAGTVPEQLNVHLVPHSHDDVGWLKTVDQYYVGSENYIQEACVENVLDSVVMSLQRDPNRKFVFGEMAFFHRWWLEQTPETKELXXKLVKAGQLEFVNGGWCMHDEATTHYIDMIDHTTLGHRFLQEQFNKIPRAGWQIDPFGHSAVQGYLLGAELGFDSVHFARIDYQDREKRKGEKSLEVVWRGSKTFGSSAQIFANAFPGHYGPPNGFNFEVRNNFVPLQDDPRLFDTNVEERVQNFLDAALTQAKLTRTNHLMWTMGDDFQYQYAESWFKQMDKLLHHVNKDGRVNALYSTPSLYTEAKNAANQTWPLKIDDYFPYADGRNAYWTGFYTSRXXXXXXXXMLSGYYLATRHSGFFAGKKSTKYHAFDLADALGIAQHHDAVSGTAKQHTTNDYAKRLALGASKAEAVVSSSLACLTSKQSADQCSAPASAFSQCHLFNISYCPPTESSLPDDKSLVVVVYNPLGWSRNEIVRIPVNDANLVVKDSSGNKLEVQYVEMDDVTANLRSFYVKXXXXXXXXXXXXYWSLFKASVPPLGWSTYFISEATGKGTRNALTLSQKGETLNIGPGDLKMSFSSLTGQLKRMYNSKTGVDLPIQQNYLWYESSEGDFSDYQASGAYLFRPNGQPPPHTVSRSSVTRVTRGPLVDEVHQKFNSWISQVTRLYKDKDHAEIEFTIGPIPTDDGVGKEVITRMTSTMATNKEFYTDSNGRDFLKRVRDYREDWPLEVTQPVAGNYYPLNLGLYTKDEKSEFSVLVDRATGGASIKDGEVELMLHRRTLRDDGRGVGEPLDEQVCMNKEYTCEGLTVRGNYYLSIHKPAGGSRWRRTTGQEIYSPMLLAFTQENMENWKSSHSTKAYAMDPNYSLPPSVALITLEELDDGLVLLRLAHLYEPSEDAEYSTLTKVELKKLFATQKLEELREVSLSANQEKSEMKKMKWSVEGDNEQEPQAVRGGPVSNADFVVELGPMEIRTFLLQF
- assayProcedure: α-mannosidase inhibition assay with pNP-Man, JBMan
- Format: biochemical

Take a look at these entries with their results.
compoundString: Cl.N=C(N)CCCCCCCCCN1C[C@@H](O)[C@@H](O)[C@H]1CO
IC50: 4.7 µM
--
compoundString: CCCCCCCCCCCCN1C[C@@H](O)[C@@H](O)[C@H]1CO
IC50: 20.3 µM
--
compoundString: OC[C@@H]1[C@H](O)[C@H](O)CN1Cc1ccccc1
IC50: 1080 µM

Provide reported IC50 for each item, in the same order as listed.
1. OC[C@@H]1[C@H](O)[C@H](O)CN1CC1CCCCC1
2. Cl.N=C(N)NCCCCCCCCCCN1C[C@@H](O)[C@@H](O)[C@H]1CO

result:
1290 µM
8.3 µM

====

Give pIC50 for every item shown.
- systemTested: GMIIb (Golgi α-mannosidase) (Drosophila melanogaster)
- assayProcedure: α-mannosidase inhibition assay with pNP-Man, GMIIb
- Assay type: biochemical
- testContext: read-out: IC50 GMIIb; 2 mM pNP-Man, pH 6.0
Answers are plain numbers, as −log10 of the molar value.

compound: OC[C@@H]1[C@H](O)[C@H](O)CN1Cc1ccc2ccccc2c1
systemTested: GMIIb (Golgi α-mannosidase) (Drosophila melanogaster)
recordedResult: 5.12
--
compound: OCC1C(O)C(O)CN1CCc1cccc2ccccc12 (centres unmarked)
systemTested: GMIIb (Golgi α-mannosidase) (Drosophila melanogaster)
recordedResult: 6.35
--
compound: OCC1C(O)C(O)CN1Cc1ccc(I)cc1 (centres unmarked)
systemTested: GMIIb (Golgi α-mannosidase) (Drosophila melanogaster)
recordedResult: 5.36
--
compound: Cl.N=C(N)NCc1ccc(CN2C[C@@H](O)[C@@H](O)[C@H]2CO)cc1
systemTested: GMIIb (Golgi α-mannosidase) (Drosophila melanogaster)
recordedResult: 5.62

Please find the next compound below.
Value of measured pIC50 for the entry OC[C@@H]1[C@H](O)[C@H](O)CN1CC1CCOCC1 : 4.81

====

- systemTested: AMAN-2 (Golgi α-mannosidase) (Caenorhabditis elegans)
- Sequence (Q2PJ74 27-1145): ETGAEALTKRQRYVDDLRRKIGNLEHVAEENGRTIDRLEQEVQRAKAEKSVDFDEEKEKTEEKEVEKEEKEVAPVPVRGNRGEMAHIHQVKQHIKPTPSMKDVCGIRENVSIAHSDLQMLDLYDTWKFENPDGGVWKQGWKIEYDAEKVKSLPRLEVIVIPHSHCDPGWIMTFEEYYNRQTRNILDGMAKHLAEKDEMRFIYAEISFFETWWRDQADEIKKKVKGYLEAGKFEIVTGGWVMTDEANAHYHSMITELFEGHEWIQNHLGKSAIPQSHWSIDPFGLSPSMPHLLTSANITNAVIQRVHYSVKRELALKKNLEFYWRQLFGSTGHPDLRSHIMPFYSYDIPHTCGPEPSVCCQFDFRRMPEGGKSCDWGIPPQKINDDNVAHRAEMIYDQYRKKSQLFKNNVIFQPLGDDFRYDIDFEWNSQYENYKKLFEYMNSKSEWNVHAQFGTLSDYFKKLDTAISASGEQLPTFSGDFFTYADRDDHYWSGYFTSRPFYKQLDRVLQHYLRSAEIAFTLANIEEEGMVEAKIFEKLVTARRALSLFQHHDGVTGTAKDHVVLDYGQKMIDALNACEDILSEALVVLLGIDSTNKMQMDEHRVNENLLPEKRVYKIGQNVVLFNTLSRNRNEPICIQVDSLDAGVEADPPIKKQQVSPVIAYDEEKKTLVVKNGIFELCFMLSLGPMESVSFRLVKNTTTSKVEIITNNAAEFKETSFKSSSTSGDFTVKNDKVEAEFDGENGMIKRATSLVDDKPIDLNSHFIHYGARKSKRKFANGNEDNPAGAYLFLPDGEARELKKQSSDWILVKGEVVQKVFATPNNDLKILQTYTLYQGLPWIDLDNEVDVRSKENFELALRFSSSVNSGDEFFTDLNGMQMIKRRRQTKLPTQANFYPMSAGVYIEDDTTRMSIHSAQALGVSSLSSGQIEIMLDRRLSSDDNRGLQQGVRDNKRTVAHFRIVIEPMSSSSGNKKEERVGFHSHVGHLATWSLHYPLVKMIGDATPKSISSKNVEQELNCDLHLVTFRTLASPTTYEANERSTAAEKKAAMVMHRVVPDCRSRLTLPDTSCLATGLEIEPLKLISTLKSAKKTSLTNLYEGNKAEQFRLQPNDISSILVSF
- assayProcedure: α-mannosidase inhibition assay with pNP-Man, AMAN-2
- Assay type: biochemical
- testContext: read-out: IC50 AMAN-2; 2 mM pNP-Man, pH 6.0; listed as N-2-naphtylmethyl
property: IC50
Number plus unit, in that order.

Value of measured IC50 for the entry OC[C@@H]1[C@H](O)[C@H](O)CN1Cc1ccc2ccccc2c1 : 7.6 µM
